Test: Brain penetration in rats after continuous intravenous infusion (LC-MS/MS)
Assay type: in vivo, Sprague Dawley rats
Conditions: male, Sprague Dawley, rat, brain, iv, 85.5 μg/kg/min, rat; i.v. infusion 85.5 μg/kg/min; 1 h; read-out: Brain
endpointLabel: concentration at 1 h
Reply with the number, then its unit.

// query Using the record for COc1ccccc1OCC(O)CN1CCN(CC(=O)Nc2c(C)cccc2C)CC1 (racemic) , report its concentration at 1 h.
// result 298 ng/g

----------
Assay: Brain penetration in rats after continuous intravenous infusion (LC-MS/MS)
Assay type: in vivo, Sprague Dawley rats
Conditions: male, Sprague Dawley, brain, iv; rat; i.v. infusion 85.5 μg/kg/min; 5 h; read-out: Brain/Plasma
endpointLabel: Kp at 5 h
Reply with the value as a number alone.

// query Consider the molecule shown here: COc1ccccc1OCC(O)CN1CCN(CC(=O)Nc2c(C)cccc2C)CC1 (racemic) What is its recorded Kp at 5 h?
// result 0.3

Origin of measurements: patent US20100292217A1
